# testedOn: Kappa-type opioid receptor (Cavia porcellus)
# experiment: Displacement of [3H]-U69593 from kappa opioid receptor in guinea pig brain membrane assessed as residual binding at 1 uM after 150 mins by liquid scintillation counting
# Type: cell membranes
measurementType: Activity (%)

Examples with answers:
Lab request: please report Activity under test system Kappa-type opioid receptor (Cavia porcellus) for COc1ccc(/C(C)=C/CN2CCOCC2)cc1
8

Lab request: please report Activity under test system Kappa-type opioid receptor (Cavia porcellus) for C/C(=C\CN1CCOCC1)c1ccccc1
3

Lab request: please report Activity under test system Kappa-type opioid receptor (Cavia porcellus) for C/C(=C\CN1CCCCC1)c1ccc2ccccc2c1
44

1: C/C(=C\CN(C)C)c1ccccc1
2: COc1cccc(/C(C)=C/CN(C)C)c1
Select one: 1 or 2 . Criterion: greater recorded Activity. Please respond with the label that marks your chosen entry.
2
(2: 5%, 1: 0%)

I: COc1cccc(/C(C)=C/CN2CCOCC2)c1
II: C/C(=C\CN1CCCCC1)c1ccccc1
Select one: I or II . Criterion: greater recorded Activity. Please respond with the label that marks your chosen entry.
I
(I: 10%, II: 0%)

P: C/C(=C\CN1CCC(Cc2ccccc2)CC1)c1ccc2ccccc2c1
Q: COc1ccc(/C(C)=C/CN(C)C)cc1
Select one: P or Q . Criterion: greater recorded Activity. Please respond with the label that marks your chosen entry.
Q

A: C/C(=C\CN1CCC(Cc2ccccc2)CC1)c1ccc(-c2ccccc2)cc1
B: COc1cccc(/C(C)=C/CN2CCCCC2)c1
Select one: A or B . Criterion: greater recorded Activity. Please respond with the label that marks your chosen entry.
B

###

# testedOn: Mu-type opioid receptor (Cavia porcellus)
# experiment: Displacement of [3H]-DAMGO from mu opioid receptor in guinea pig brain membrane assessed as residual binding at 1 uM after 150 mins by liquid scintillation counting
# Type: cell membranes
measurementType: Activity (%)

Examples with answers:
// lookup Activity for C/C(=C\CN1CCCCC1)c1ccc2ccccc2c1
23

// lookup Activity for C/C(=C\CN1CCOCC1)c1ccc2ccccc2c1
44

// lookup Activity for COc1cccc(/C(C)=C/CN(C)C)c1
17

// lookup Activity for C/C(=C\CN1CCC(Cc2ccccc2)CC1)c1ccc(-c2ccccc2)cc1
0

// lookup Activity for COc1cccc(/C(C)=C/CN(C)Cc2ccccc2)c1
49

// lookup Activity for COc1ccc(/C(C)=C/CN(C)C)cc1
10

// lookup Activity for C/C(=C\CN(C)C)c1ccccc1
0

// lookup Activity for C/C(=C\CN1CCOCC1)c1ccccc1
12

a: C/C(=C\CN1CCC(Cc2ccccc2)CC1)c1ccc2ccccc2c1
b: COc1cccc(/C(C)=C/CN2CCCCC2)c1
Select one: a or b . Criterion: greater recorded Activity. Please respond with the label that marks your chosen entry.
a
(a: 38%, b: 21%)

###

# experiment: Displacement of [3H]-DTG from sigma2 receptor in guinea pig brain membrane after 120 mins by liquid scintillation counting
# Format: cell membranes, Cavia porcellus
pKi: −log10 of the molar value.
measurementType: pKi

// lookup pKi for C/C(=C\CN1CCOCC1)c1ccc2ccccc2c1
6.64

// lookup pKi for C/C(=C\CN1CCC(Cc2ccccc2)CC1)c1ccccc1
8.26

// lookup pKi for C/C(=C\CN1CCCCC1)c1ccc2ccccc2c1
7.45

A: COc1cccc(/C(C)=C/CN(C)Cc2ccccc2)c1
B: C/C(=C\CN1CCOCC1)c1ccc(-c2ccccc2)cc1
C: COc1cccc(/C(C)=C/CN2CCC(Cc3ccccc3)CC2)c1
D: C/C(=C\CN(C)Cc1ccccc1)c1ccccc1
Please rank these compounds by pKi in descending order. Hello, could you send the labels back in the order asked? Thank you.
C, D, A, B

1: COc1ccc(/C(C)=C/CN(C)Cc2ccccc2)cc1
2: C/C(=C\CN1CCC(Cc2ccccc2)CC1)c1ccc(-c2ccccc2)cc1
3: C/C(=C\CN(C)Cc1ccccc1)c1ccc2ccccc2c1
Form: Sort by [pKi] Order [ ascending ] Hello, could you send the labels back in the order asked? Thank you.
3, 1, 2

I: C/C(=C\CN(C)C)c1ccc(-c2ccccc2)cc1
II: C/C(=C\CN1CCC(Cc2ccccc2)CC1)c1ccc2ccccc2c1
III: COc1ccc(/C(C)=C/CN2CCC(Cc3ccccc3)CC2)cc1
IV: C/C(=C\CN1CCCCC1)c1ccccc1
Form: Sort by [pKi] Order [ ascending ] Hello, could you send the labels back in the order asked? Thank you.
IV, I, II, III

This collection of values is drawn from ChEMBL document CHEMBL1914335.
